Experiment: JC-1 mitochondrial signal, unstimulated adipocytes – cell-based, JC-1 fluorescence, 3T3-L1 adipocytes, 24 h, 100 nL compound, profiling panel (AID 1168); note: test concentration not given here
Settings: JC-1 mitochondrial fluorescence, higher = more signal, called active from +8 up or from −8 down
The source made the active and inactive calls.
Recorded z-score values for a group of molecules are listed next.

Below, each entry is followed by its recorded z-score result.
>>> result("CC(=O)NCCCC[C@@H]1NC(=O)[C@@H]2C[C@H](C(=O)NCCCCCN)[C@H](c3ccc(O)cc3)N2C1=O")
"-0.00185 (inactive)"
>>> result("CC1CC/C=C\\[C@H]2OC34C=CCN(c5ccc(Cl)cc5)C(=O)[C@H]3N(C(C)CO)C(=O)[C@]4(C)C2C(=O)O1 (some centres undefined)")
"-0.29 (inactive)"
>>> result("COC(=O)[C@]1(CCS(=O)(=O)c2ccccc2)N=C(c2ccc(OCCCO)cc2)O[C@@H]1c1ccccc1N=[N+]=[N-]")
"-0.294 (inactive)"

GET /values?readout=z-score&item= C=CCNC(=O)[C@H]1[C@@H]2C(=O)O[C@@H](c3ccccc3)[C@@H](c3ccccc3)N2[C@@H](c2ccccc2OCCO)[C@]12C(=O)N(C(=O)OCCOC)c1ccc(C#CC3(O)CCCCCC3)cc12
1.18 (inactive)

Then CCOC(=O)C[C@H]1[C@H](OC(=O)c2ccc(C(=O)c3ccccc3)cc2)[C@@H](NC(=O)c2ccc3ccccc3n2)c2cc(OCCCO)ccc2N1C(=O)Cc1ccc(OC)cc1 ?
0.295 (inactive)

Then CCCC#C[Si](O[C@H](CC)c1cn([C@H](C)c2ccccc2)nn1)(C(C)C)C(C)C ?
0.698 (inactive)

Then CO[C@H]1O[C@H](CO)[C@@H](OC(=O)CCc2ccccc2)[C@@H]2OC(=O)[C@@H](Cc3ccccc3)C/C=C/C[C@H](Cc3ccccc3)C(=O)O[C@@H]12 ?
0.669 (inactive)

Then CCOC(=O)C1=CC[C@@H](c2ccccc2F)N(S(=O)(=O)c2ccc(C)cc2)[C@H]1c1ccccc1 ?
-1.35 (inactive)

Then C[N+](C)(C)CCCCCCNC(=O)[C@@H]1C[C@@H]2C(=O)N3CCC[C@H]3C(=O)N2[C@@H]1c1ccc(O)cc1 ?
-0.362 (inactive)

Then CC(c1ccccc1)C(O)C1C=CC2C(=O)N(C)C(=O)C2N1Nc1ccccc1 (centres undefined) ?
-0.83 (inactive)

Then Cc1ccc(S[C@]2(C(=O)O)CC(=O)N(C3CCCCC3)[C@@H]2c2ccc(CO)cc2I)cc1 ?
-0.343 (inactive)

Then COCCOC(=O)N1C(=O)[C@@]2(c3cc(C#CCC(C(=O)OC)C(=O)OC)ccc31)[C@H](c1ccc(OCCO)cc1)N1[C@H](c3ccccc3)[C@H](c3ccccc3)OC(=O)[C@H]1[C@@H]2C(=O)N1CCc2cc(OC)c(OC)cc2C1 ?
1.37 (inactive)

Then CCOC(=O)C[C@H]1[C@H](OC(=O)c2ccc(C(=O)c3ccccc3)cc2)[C@@H](NC(=O)CC(C)C)c2cc(OCCCO)ccc2N1C(=O)c1ccccc1 ?
0.275 (inactive)

Then C=C[C@H](C)[C@H](OC(=O)Nc1ccc(SC)cc1)c1ccc(OCCO)cc1 ?
0.508 (inactive)

Then CCCCC(CC)C(O)C1C=CC2C(=O)N(c3ccccc3)C(=O)C2N1Nc1ccc(C#N)cc1 (centres undefined) ?
-1.61 (inactive)

Then CCCCC[C@H]1OC[C@@]23C=C(Br)[C@@H](CC12)[C@@]1(CO1)C3=O (some centres undefined) ?
-0.498 (inactive)

Then O=C(Cc1ccccc1)[C@H]1C2C=CCCC(c3ccccc3)=C2CN1Cc1ccccc1 (some centres undefined) ?
0.122 (inactive)

Then COc1cc2c(cc1O)C(C1CC1)N(Cc1cccc(OC(F)(F)F)c1)CC2 (centres undefined) ?
-0.356 (inactive)

Then COc1ccc([Si](C)(C)[C@H]2[C@H](CC(=O)N(CCO)Cc3ccccc3)O[C@@]3(C(=O)N(C)c4c(Br)cc(C)cc43)[C@@H]2C)cc1 ?
0.0268 (inactive)

Then C=CCNC(=O)[C@@H]1[C@H]2C(=O)O[C@H](c3ccccc3)[C@H](c3ccccc3)N2[C@H](c2ccccc2OCCO)[C@@]12C(=O)N(C(=O)OCCOC)c1ccc(C#CC3(O)CCCCCC3)cc12 ?
-0.389 (inactive)

Then CCCCCC1=C2CNC(C)(C(=O)OC)C=C2C(C)C1=O (centres undefined) ?
-1.22 (inactive)

Then NC(=O)[C@H]1[C@@H]2C(=O)O[C@@H](c3ccccc3)[C@@H](c3ccccc3)N2[C@@H](c2ccc(OCCO)cc2)[C@]12C(=O)Nc1ccc(C#CCCO)cc12 ?
-0.383 (inactive)

Then O=C(NCc1ccc(F)cc1)[C@H]1C[C@H]2C(=O)NCC(=O)N2[C@H]1c1ccc(O)cc1 ?
-0.276 (inactive)

Reference source for all entries: PubChem BioAssay
